These entries and their values trace back to PubChem BioAssay (NCI).

The entries below come with measured growth inhibition values attached.
Assay: NCI Yeast Anticancer Drug Screen. Data for the mlh1 rad18 strain (AID 175)
Details: S. cerevisiae mlh1 rad18 strain growth inhibition; at 50.0 µM; stronger effect = higher value
About 79,000 compounds went through this panel and 15% of them were active in at least one assay; those are over-represented in the sample as a whole. The source made the active and inactive calls. Cut-off read from the data, not from the text of the source: active = growth inhibition above about 70%; inactive = the rest.

Cc1cc(=O)c2c(ccc3c(=O)cc(C)[nH]c32)[nH]1
3.25% (inactive)
O=C(Nc1cccc(C(F)(F)F)c1)OCCOc1ccc(Cl)cc1
98% (active)
CC(O)CCNC(=O)c1ccccc1 (configuration not stated)
-5% (inactive)

Complete the entry with growth inhibition for Cc1cccc(NC(=O)/C=C/C(=O)O)c1
-45.1% (inactive)

Hello, please tell me recorded growth inhibition for this one: CCSc1sc(=Nc2ccc(N=c3sc(C)c(SC)s3)cc2)sc1-c1ccc(C)cc1
-5.2% (inactive)

Fill in growth inhibition for record CC(C)(CO)C(O)C(=O)NCCO (configuration not stated)
-10.4% (inactive)

Return growth inhibition (reported value) for this compound: O=C(C(=O)c1ccccc1)c1ccccc1
-1.15% (inactive)

Supply recorded growth inhibition for CCCCCCCCCCCCCCCCCCNc1nc(=O)n(C2CC(O)C(COP(=O)(O)O)O2)cc1F (configuration not stated) here.
-23% (inactive)

Please look at this compound and report its growth inhibition: CCC(CC)CC1CCCCC1O (configuration not stated)
-11.9% (inactive)

Specify growth inhibition for N#CC(c1ccc(N)cc1)c1ccc(F)cc1 (configuration not stated) and stop.
26.2% (inactive)

Identify the reported growth inhibition for the following entry. COc1cccc(-c2cc(=O)c3cccc(CC(=O)O)c3o2)c1
-30.9% (inactive)

Entry Cc1cccc(-c2nnc(-c3cccc4ccccc34)o2)c1 needs its growth inhibition filled in; supply it.
13.4% (inactive)

* * *

# reported growth inhibition; entries follow
Assay: NCI Yeast Anticancer Drug Screen. Data for the mlh1 rad18 strain (AID 175)
Details: S. cerevisiae mlh1 rad18 strain growth inhibition; at 50.0 µM; stronger effect = higher value
This is part of a sample that, as a whole, favours compounds with a hit. Of some 79,000 tested, about 15% had one in any assay.
The reply should be a number in %, with the unit left off.

O=C(CN1CCCCC1)NC(=O)c1ccccc1
-7.5
c1ccc(CNCCCNCCCCNCCCNCc2ccccc2)cc1
7.45
Cc1cnc2cc(Cl)ccc2c1NCCN(CC(C)C)CC(C)C
-30.8

# return recorded growth inhibition for input COc1ccc(C/C=N/Nc2ccc([N+](=O)[O-])cc2[N+](=O)[O-])cc1OC
-0.55

State, in one line, measured growth inhibition of CSCCNC(=O)CS(=O)(=O)c1ccc(N)cc1
-14.9

Supply recorded growth inhibition for O=[N+]([O-])C1CC(O)C(O)CC1c1ccc2c(c1)OCO2 (stereo not drawn) here.
3.7

For the molecule Cc1cc(C)c(Cc2c(C)cc(C)cc2C)c(C)c1 , give its reported growth inhibition.
13.9

Using known records, supply growth inhibition for O=C(O)CC(O)c1ccccc1 (stereo not drawn)
18.6

* * *

Experiment: NCI Yeast Anticancer Drug Screen. Data for the rad50 strain (AID 155);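 note: 0% = growth of vehicle-only cultures of the same strain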
Conditions: S. cerevisiae rad50 strain growth inhibition; at 50.0 µM; stronger effect = higher value
Compounds without any hit were thinned out: in the full panel of roughly 79,000, 15% have a hit.
Reported growth inhibition by item:
Express it in %; write the number only.

Indicate the recorded growth inhibition value for this compound: CC(=O)Nc1ccc(C(O)/C(=N/N)c2nc3ccc(Cl)cc3[nH]c2=O)cc1 (stereo not drawn)
9.15

Consider the compound OCc1ccccc1CC(O)c1ccccc1 (stereo not drawn) and give its recorded growth inhibition.
-23.7

Fill in reported growth inhibition for this entry: Fc1ccc(N2C(c3ccccc3)=N[C@@H](N3CCOCC3)[C@@H]2N2CCOCC2)cc1
21.4
